- experimental.details: chemical genetic growth profiling, strain panel (AID 1159580);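 note: tested at 20 µM; growth read once vehicle control cultures reached saturation at 30 °C; 1 = growth at the plate median or of vehicle wells; lower values mean less growth of the strain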
- condition.info: S. cerevisiae deletion strains, growth OD, locus YER167W, strain BCK2, active compounds read low
Screen size: about 5,500 compounds; about 2,000 (36%) were called active. About 18% were inconclusive and are not listed. Some of the results follow.
readout: normalized growth
Note: the reply should be a number with no unit written.

Q: Look up normalized growth: CNC[C@H](O)c1cccc(O)c1
Result: 1.01

Q: Look up normalized growth: C[C@]12CCC(=O)C=C1CCc1ccc(O)cc12
Result: 1.02

Q: Look up normalized growth: COc1ccc(-c2cc(=O)c3c(O)cc(O)cc3o2)cc1O
Result: 0.997

Q: Look up normalized growth: CSCCC(N)C(=O)NC(CC(C)C)C(=O)NC(Cc1ccccc1)C(=O)O (stereo not given)
Result: 1.02

Q: Look up normalized growth: CC1(C)S[C@@H]2[C@H](NC(=O)C(C(=O)O)c3ccccc3)C(=O)N2[C@H]1C(=O)O (stereo not given in full)
Result: 0.993

Q: Look up normalized growth: NS(=O)(=O)c1cc2c(cc1C(F)(F)F)NC(Cc1ccccc1)NS2(=O)=O (stereo not given)
Result: 1.01

Q: Look up normalized growth: CC1(C)C(O)CC(=O)C2(C)C1CC(O)C1(C)C2CCC2(C)C(c3ccoc3)OC(=O)C3OC321 (stereo not given)
Result: 0.998

Q: Look up normalized growth: COc1cc(C)c2c(=O)c3c(O)cc(O)cc3oc2c1
Result: 0.983

Q: Look up normalized growth: COc1cc(O)c2c(=O)cc(-c3ccc(OC)c(-c4c(O)cc(O)c5c(=O)cc(-c6ccc(O)cc6)oc45)c3)oc2c1
Result: 0.957

Q: Look up normalized growth: COc1cccc2c1CCC1=CC(=O)CC[C@@]12C
Result: 0.996

* * *

- experimental.details: chemical genetic growth profiling, strain panel (AID 1159580);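 note: tested at 20 µM; growth read once vehicle control cultures reached saturation at 30 °C; 1 = growth at the plate median or of vehicle wells; lower values mean less growth of the strain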
- condition.info: S. cerevisiae deletion strains, growth OD, locus YPL209C, strain IPL1, active compounds read low
Among all 5,500 compounds or so, about 2,000 (36%) were called active. Not shown: some 18% with an inconclusive outcome. The list shows a part of the results.
readout: normalized growth
Note: the reply should be a number with no unit written.

Q: Look up normalized growth: Cc1cc(-c2onc(C)c2C(=O)Sc2ccccc2)no1
Result: 0.944

Q: Look up normalized growth: Clc1cccc(Cl)c1C1CC(c2ccccc2)=Nc2ccccc2S1 (stereo not given)
Result: 0.988

Q: Look up normalized growth: O=S(=O)(Nc1ccccc1Sc1c(Cl)cncc1Cl)c1ccc(Cl)cc1
Result: 0.99

Q: Look up normalized growth: O=C1OC(c2ccccc2)=C/C1=C/c1ccccc1
Result: 0.947

Q: Look up normalized growth: O=C(NNc1cc(C(F)(F)F)cc(C(F)(F)F)c1)c1cnc2n(c1=O)CCS2
Result: 0.984

Q: Look up normalized growth: CN1/C(=C/C=C/c2ccc3ccccc3[n+]2C)C=Cc2ccccc21
Result: 0.748

Q: Look up normalized growth: C/C(=N/NC(N)=S)c1csc(-c2ccccc2)n1
Result: 0.945

Q: Look up normalized growth: CC(C)(C)NC(=S)N/N=C\c1cc(Br)c(O)c(Br)c1
Result: 0.966

Q: Look up normalized growth: N#Cc1nccnc1N1CCN(C(=O)Nc2cc(Cl)cc(Cl)c2)CC1
Result: 0.974

Q: Look up normalized growth: ONC(=Nc1ccccc1Cl)c1ccccc1Cl
Result: 0.992

Q: Look up normalized growth: O=C1/C(=C/c2c[nH]c3ccccc23)CSc2ccccc21
Result: 0.989

Q: Look up normalized growth: CCCCCCCCCCCCSc1ncn[nH]1
Result: 0.982

Q: Look up normalized growth: O=C1Nc2ccccc2/C1=C\c1cccc2ccccc12
Result: 0.967

Q: Look up normalized growth: N/C(=N/OC(=O)c1ccc([N+](=O)[O-])cc1)c1c(Cl)cccc1Cl
Result: 0.955

Q: Look up normalized growth: N/C(=N/OC(=O)c1cnn(-c2ccc([N+](=O)[O-])cc2)c1C(F)(F)F)c1ccc(Cl)cc1
Result: 0.978

Q: Look up normalized growth: O=C1Nc2ccccc2/C1=C\c1c[nH]c2ccccc12
Result: 0.694

Q: Look up normalized growth: Cc1cc(Br)c(O)c(/C=N\NC(=S)NC(C)(C)C)c1
Result: 0.981

Q: Look up normalized growth: COc1ccccc1N1CCN(C(=O)C(C)c2ccc(CC(C)C)cc2)CC1 (stereo not given)
Result: 0.981

Q: Look up normalized growth: O=C(Nc1cc2ccccc2s1)N1CCN(Cc2c(F)cccc2Cl)CC1
Result: 0.976

Q: Look up normalized growth: O=c1cc(CSc2ccc(Cl)cc2)c2ccc(O)cc2o1
Result: 0.955
